# Tested on: NCI-H522 lung
# ASSAY_COMMENT: NCI tumour cell line growth inhibition, 48 h
OBSERVED_PROPERTY: TGI

// field: TGI; key: Cc1cc2nc(CCC(=O)O)c(=O)[nH]c2cc1C ; value = > 100 µM

// field: TGI; key: CC(C)(C)OC(=O)c1cnc(Cl)cn1 ; value = 2.78 µM

// field: TGI; key: O=C(NC(CS)C(=O)O)c1cccc2c(=O)c3ccccc3[nH]c12 (centres undefined) ; value = > 100 µM

Others:
// field: TGI; key: CC(=O)OCC(OC(C)=O)C(OC(C)=O)C(OC(C)=O)C(C=NN(C(C)=O)S(=O)(=O)c1ccc(/C=C2\NC(=O)N(C)C2=O)cc1)OC(C)=O (centres undefined) ; value = 72.9 µM

// field: TGI; key: N#C/C(=C/c1ccc[nH]1)P(=O)(O)O ; value = > 100 µM

// field: TGI; key: COC1CC(OC2C(C)OC(OC3C(C)OC(OC4C(O)CC(O[C@H]5CC[C@@]6(C)C(=CC[C@]7(O)[C@@H]6C[C@@H](OC(=O)/C=C/c6ccccc6)[C@@]6(C)[C@]7(O)CC[C@@]6(O)C(C)=O)C5)OC4C)CC3OC)CC2OC)OC(C)C1O (some centres undefined) ; value = > 6.25 µM

// field: TGI; key: NC(=S)N/N=C(\Cc1nc2ccc(Cl)cc2[nH]c1=O)C(=O)Nc1ccc(Cl)cc1 ; value = > 100 µM

// field: TGI; key: Nc1nc(N)c(C2=CCNCC2)c(=O)[nH]1 ; value = > 100 µM

// field: TGI; key: Clc1cc(Cc2cc(Cl)c(Cl)c3c2OCOC3)c2c(c1Cl)COCO2 ; value = > 100 µM

* * *

Each entry below carries its recorded TGI.
# Test system: UACC-62 melanoma
# ASSAY_COMMENT: NCI tumour cell line growth inhibition, 48 h

// field: TGI; key: CC(=O)[CH-]C(=O)c1ccccc1.CC(=O)[CH-]C(=O)c1ccccc1.[Eu+3].[OH-].[OH3+] ; value = > 100 µM

Others:
// field: TGI; key: Cc1cc2nc3c4cc(N)ccc4n(CCN(C)C)c3nc2cc1C ; value = 2.75 µM

// field: TGI; key: CC(C)c1ccc(C2C3=C(N=C4SCC(=O)N42)C(=O)c2ccccc23)cc1 (stereo not given) ; value = > 100 µM

* * *

# Test system: NCI-H460 lung
OBSERVED_PROPERTY: GI50

Some entries whose results are on file:
Form field GI50 for item Cc1cc2nc3c4cc(N)ccc4n(CCN(C)C)c3nc2cc1C on NCI-H460 lung: 402 nM

Form field GI50 for item COc1ccc(/C=C/C(=O)c2ccc(SC)cc2)cc1OC on NCI-H460 lung: 70600 nM

Form field GI50 for item N[C@@H]1CCCC[C@H]1N.O=C([O-])C(=O)[O-].[Pt+4] on NCI-H460 lung: 435 nM

Others:
Form field GI50 for item Cn1c(/C=C(\C#N)c2ccccc2)nc2c(N3CCOCC3)nc(Cl)nc21 on NCI-H460 lung: 1770 nM

Form field GI50 for item O=C(/C=C/c1cccnc1)NCCCCC1CCCN(C(=O)c2ccccc2)C1 (stereo not drawn) on NCI-H460 lung: 22.7 nM

Form field GI50 for item Cc1ccc(/C=C2/SC(Nc3nc(-c4csc(NC5=NC(=O)/C(=C\c6ccc(C)cc6)S5)n4)cs3)=NC2=O)cc1 on NCI-H460 lung: 4360 nM

Form field GI50 for item COc1cc(-c2nn(-c3cccc(NC(=O)Nc4cc(C(F)(F)F)cc(C(F)(F)F)c4)c3)cc2-c2ccncc2)ccc1Cl on NCI-H460 lung: 366 nM

Form field GI50 for item C=CC(=O)N1CCN(c2nc(=O)n(-c3c(C)ccnc3C(C)C)c3nc(-c4c(O)cccc4F)c(F)cc23)[C@@H](C)C1 on NCI-H460 lung: 43400 nM

Form field GI50 for item CC(C)(C)c1nn(-c2ccccc2)c2c1C(=O)CSC(c1ccccc1Cl)N2 (stereo not drawn) on NCI-H460 lung: 2800 nM

Form field GI50 for item CCOc1ccc(-c2nonc2NC(=O)c2cccc(C)c2)cc1OCC on NCI-H460 lung: > 100000 nM

Form field GI50 for item Cc1c(-c2c(-c3ccc(F)o3)sc3ncnc(O[C@H](Cc4ccccc4OCc4ccnn4CC(F)(F)F)C(=O)O)c23)ccc(OCCN2CCN(C)CC2)c1Cl on NCI-H460 lung: 4170 nM

Form field GI50 for item O=C1c2cc3c(cc2-c2c1c1ccc(Cl)cc1c(=O)n2CCCNCCO)OCO3 on NCI-H460 lung: 34.2 nM

Form field GI50 for item c1ccc2[nH]c(-c3ccc(NN=Nc4ccncc4)cc3)nc2c1 on NCI-H460 lung: 2460 nM

Source listed as PubChem BioAssay (NCI).
